# Tested on: MDA-MB-435
# test.details: NCI tumour cell line growth inhibition, 48 h
Let's look at some compounds and their measured TGI.

These solved cases illustrate the format of a correct answer.
compound	measurement
COc1cc2c(cc1OC)C1(COc3cc(O)c(O)c(O)c3C1=O)C2 (stereo unspecified)	> 50 µM
Cc1c2c(OCCN3CCCCC3)nn(C)c(=O)c2c(C)n1-c1ccccc1	> 100 µM
CN/N=C(\C)C(CN(C)C)C(c1ccccc1)c1c(O)c2ccccc2oc1=O (stereo unspecified)	> 100 µM

Ask: Can you look up the measured TGI of C=C1CCC2C(C)(COC(=O)CC)C(OC(=O)CC)CCC2(C)C1C/C=C1/C(=O)OCC1OC(=O)CC (stereo unspecified) for me?
Result: 3.7 µM

Ask: Can you look up the measured TGI of `COC(=O)c1cc(O)c2c(c1C(=O)OC)C[C@H]1[C@@H]3CC=C4C[C@@H](O)CC[C@]4(C)[C@H]3CC[C@]21C` for me?
Result: 20.6 µM

Ask: Can you look up the measured TGI of `Cc1cc(C)c(NC(=S)NC(=O)c2ccccc2)cc1C` for me?
Result: > 100 µM

----------
Let's look at some compounds and their measured TGI.
# Test system: HOP-92 NSCLC
# test.details: NCI tumour cell line growth inhibition, 48 h

>>> df
                                   compound  measurement
0             O=C(O)C(Cl)(c1ccccc1)c1ccccc1     > 100 µM
1     O=C1C=CC(=O)c2cc(Sc3ccccc3)c(=O)ccc21    > 52.7 µM
2  C=C(Nc1ccc([N+](=O)[O-])cc1[N+](=O)[O-])c1c/c(=N\NC(N)=S)c2ccccc2o1     > 100 µM
3  COc1ccc(-c2c3c(n(C4OC(COC(C)=O)C(OC(C)=O)C(OC(C)=O)C4OC(C)=O)c(=S)c2C#N)CC(C)(C)CC3=O)cc1 (stereo not drawn)     > 100 µM
4          CCOC(=O)/C(C#N)=C/c1ccnc2ccccc12     > 100 µM
5  COC(C)(C)C1(O)CCC(C)CC1=O (stereo not drawn)     > 100 µM

Ask: Give recorded TGI with HOP-92 NSCLC for the following compound: `O=c1[nH]nc(Cc2ccccc2)n1CCO`
Result: > 100 µM

Ask: Give recorded TGI with HOP-92 NSCLC for the following compound: `CNC(=O)Cc1nc(-c2cccc(NS(=O)(=O)c3c(F)cccc3F)c2F)c(-c2ccnc(Nc3ccccc3)n2)s1`
Result: > 14.4 µM

----------
# System: EKVX NSCLC
# test.details: NCI tumour cell line growth inhibition, 48 h
outcome.measure: TGI

These solved cases illustrate the format of a correct answer.
>>> df
                                   compound  measurement
0  N#Cc1c(-c2ccccc2)c(N=Nc2ccc(Cl)cc2)c(=O)n2c1[nH]c1ccccc12     > 100 µM
1  Cc1cc(S(=O)(=O)Nc2nc(N)nc(N(C)C)n2)c(SCC(=O)O)cc1Cl      > 10 µM

Ask: Can you look up the measured TGI of FC1C2=C(SC1(F)F)C1CCC2C1 (stereo unspecified) for me?
Result: > 100 µM

Ask: Can you look up the measured TGI of CN(Cc1cc(Cl)cc(Cl)c1)CC(C(=O)c1ccccc1)c1ccccc1 (stereo unspecified) for me?
Result: 57.6 µM

Ask: Can you look up the measured TGI of CCOC(=O)CC1(c2cccc3ccccc23)OC(=O)c2ccccc21 (stereo unspecified) for me?
Result: > 100 µM

Ask: Can you look up the measured TGI of CCOP(=O)(OCC)C(N)c1ccc(Cl)cc1 (stereo unspecified) for me?
Result: > 100 µM

Ask: Can you look up the measured TGI of `FC(F)(F)c1cccc(-c2nc3ccccc3c3c2[C@@]2(N4CCCC4)CCCC[C@@H]32)c1` for me?
Result: > 100 µM

Ask: Can you look up the measured TGI of `Cc1cn2c(/C=N/N=C(N)N)c(-c3cccs3)nc2s1` for me?
Result: 21.1 µM

Ask: Can you look up the measured TGI of `Cn1c(=O)c2nc(-c3ccc(Cl)cc3)oc2n(C)c1=O` for me?
Result: > 100 µM

Ask: Can you look up the measured TGI of `Nc1ccc(C(=O)c2cn(CCN3CCOCC3)c3ccccc23)c2ccccc12` for me?
Result: 90.8 µM

Ask: Can you look up the measured TGI of `O=S1Nc2c(Cl)cc(Cl)c3c(Cl)cc(Cl)c(c23)N1` for me?
Result: > 100 µM

Ask: Can you look up the measured TGI of `CCN(CC)CCNC(=O)c1cn2c(ccc3sc4ccccc4c(=O)c32)n1` for me?
Result: 35.3 µM

Ask: Can you look up the measured TGI of `CCn1c(-c2cc3ccccc3cc2O)nn(C(=O)c2c(Cl)cccc2Cl)c1=S` for me?
Result: > 50 µM

Ask: Can you look up the measured TGI of `CCOC(=O)C(C)(C)Oc1ccc(/C=C/C(=O)c2ccc(Cl)cc2)cc1` for me?
Result: > 100 µM

Ask: Can you look up the measured TGI of `Cc1cc(C)c(NC(=S)NC(=O)c2ccccc2)cc1C` for me?
Result: > 100 µM

Ask: Can you look up the measured TGI of CC(=O)OC1CC2C(C)(C)C(=O)C=C[C@]2(C)C2CCC3(C)C(=CC(=O)C3c3ccoc3)[C@]12C (stereo partly specified) for me?
Result: 37.7 µM

----------
# Tested on: HT29 colon
# test.details: NCI tumour cell line growth inhibition, 48 h; in the data active means GI50 below about 0.43 µM; inactive means the rest
# output must be one of y (active), n (inactive)

In [3]: df
Out[3]:
                            chemical_smiles  group
0  COc1ccc2nc3cc([N+](=O)[O-])ccc3c(NCCCN(C)C)c2c1      y

Ask: What outcome does the record of this test show for `Cc1cc(C)c(Cn2cnc3c(Cl)ncnc32)c(C)c1CCl` ?
Result: n

Ask: What outcome does the record of this test show for `O=C(/C=C/c1ccccc1)n1c(-c2ccc(Cl)cc2)nc2ccccc21` ?
Result: n

Ask: What outcome does the record of this test show for `Nc1nc(N)c2cc(NCc3ccc(Cl)c(Cl)c3)ccc2n1` ?
Result: n

Ask: What outcome does the record of this test show for `COc1cccc(/C=C/C(=O)c2ccc(Cl)cc2Cl)c1` ?
Result: n

Ask: What outcome does the record of this test show for `COc1ccc(OC)c(-c2cc(-c3ccc(Cl)cc3)nn2-c2ccc(S(=O)(=O)NC(C)=O)cc2)c1` ?
Result: n

----------
# Tested on: U251 CNS
# test.details: NCI tumour cell line growth inhibition, 48 h
Let's look at some compounds and their measured TGI.

These solved cases illustrate the format of a correct answer.
>>> df
                                   compound  outcome_measure  measurement
0  Cc1nc(N2CCC3(CC2)CO[C@@H](C)[C@H]3N)c(CO)nc1Sc1ccnc(N)c1Cl              TGI     > 100 µM
1  Cc1ccc(C)c(C2NC(=O)c3ccccc3N2)c1 (centres undefined)              TGI      17.9 µM
2   Cc1cccc(C)c1NC(=O)Nc1ccc(S(N)(=O)=O)cc1              TGI     > 100 µM
3  O=C(Nc1ccc(-n2ccc3c(NC(=O)c4ccccc4)ncnc32)cc1)Nc1cccc(Cl)c1Cl              TGI       1.4 µM
4      COc1cccc(/C=C/C(=O)c2ccc(Cl)cc2Cl)c1              TGI      > 50 µM

Ask: Can you look up the measured TGI of `N#Cc1c(-c2ccccc2)c(N=Nc2ccc(Cl)cc2)c(=O)n2c1[nH]c1ccccc12` for me?
Result: > 100 µM

Ask: Can you look up the measured TGI of COC(C)(C)C1(O)CCC(C)CC1=O (centres undefined) for me?
Result: > 100 µM

Ask: Can you look up the measured TGI of `O=C1Nc2ccc(Cl)cc2/C1=C\c1c(Cl)nc2sccn12` for me?
Result: > 100 µM

Ask: Can you look up the measured TGI of CCCN(CCCC(NC(C)=O)C(=O)NCc1ccccc1)C(=O)NCCCl (centres undefined) for me?
Result: > 100 µM

Ask: Can you look up the measured TGI of C=CCO[C@]1(CC=C)C(=O)C(=O)OC1C1COC(C)(C)O1 (some centres undefined) for me?
Result: > 100 µM

Ask: Can you look up the measured TGI of C[N+]1(CCCl)CC[N+](C)(CCCl)CC1 (centres undefined) for me?
Result: > 100 µM

Ask: Can you look up the measured TGI of `COc1c(O)cc2c(c1O)C(=O)/C(=C/c1ccc(O)cc1)CO2` for me?
Result: > 100 µM

Ask: Can you look up the measured TGI of `COc1ccc(OC)c2c1[nH]c(=O)c1c3ncccc3cn21` for me?
Result: 27.8 µM

Ask: Can you look up the measured TGI of COc1ccc(-c2c3c(n(C4OC(COC(C)=O)C(OC(C)=O)C(OC(C)=O)C4OC(C)=O)c(=S)c2C#N)CC(C)(C)CC3=O)cc1 (centres undefined) for me?
Result: > 100 µM

Ask: Can you look up the measured TGI of `CCOC(=O)c1sc2[n+](c1C)C(=O)/C(=C/c1ccc([N+](=O)[O-])cc1)S2` for me?
Result: 40.3 µM

Ask: Can you look up the measured TGI of `CCOC(=N)/C(=C1\OC(N)=C(c2ccc(Cl)cc2)C1=O)c1ccc(Cl)cc1` for me?
Result: 30.8 µM

Ask: Can you look up the measured TGI of `CN1C(=O)N[C@H]2[C@@H]3NC(=O)c4ccc(Br)n4[C@@H]3C[C@]21O` for me?
Result: 1.55 µM

Ask: Can you look up the measured TGI of CCOP(=O)(OCC)C(N)c1ccc(Cl)cc1 (centres undefined) for me?
Result: > 100 µM

Ask: Can you look up the measured TGI of `O=c1c2cccc3cccc(c4n1CCN=4)c32` for me?
Result: > 100 µM

Ask: Can you look up the measured TGI of `Cc1noc(NC2=CC(=O)C(=O)c3ccccc32)c1C` for me?
Result: > 100 µM

Ask: Can you look up the measured TGI of O=CC12C3CCC1C2C(=O)C3 (centres undefined) for me?
Result: > 100 µM

Ask: Can you look up the measured TGI of `CCOC(=O)/C(C#N)=C/c1ccnc2ccccc12` for me?
Result: > 100 µM

Ask: Can you look up the measured TGI of CCOC(=O)C(NC(=O)c1ccccc1)(N1CCOCC1)C(F)(F)F (centres undefined) for me?
Result: > 100 µM

Ask: Can you look up the measured TGI of `Cn1c2ccc(Br)cc2c2c3c(c4c5ccccc5[nH]c4c21)C(=O)N(O)C3=O` for me?
Result: 0.266 µM
